Can you tell me TGI for the items I'm about to list?
test system: HL-60(TB) leukemia; test: NCI tumour cell line growth inhibition, 48 h
Just the number in µM, nothing appended.

Ask | Fill in the blank: the reported TGI of "O=C(CF)N(O)c1ccc(/C=C/c2ccccc2)cc1" is ____.
Reply | 13.6

Ask | Again, but for "Oc1ccc2oc3c(O)c4ccccc4cc3c2c1"
Reply | 13.5

Ask | Again, but for CCSC1(SCC)CC(Cc2ccc(OC)cc2)N(C=NC(C)(C)C)C1 (configuration not stated)
Reply | 26.6

Ask | Again, but for "COc1cc(/C=C/C(=O)OCCc2ccccc2)ccc1O"
Reply | 40.2

Ask | Again, but for O=C(O)C1=C(C(=O)O)N(c2ccncc2)C(c2ccco2)=CC1c1ccccc1[N+](=O)[O-] (configuration not stated)
Reply | 7.85

Each recorded value in this set is attributed to PubChem BioAssay (NCI).
